Tested on: MCF-7 cells
Measure Name: GI50 (µM)

Examples from the recorded data:
Input line: Data request, read-out GI50, for `Cc1cc2ncn(-c3nc(N4CCOCC4)nc(N4CCOCC4)n3)c2cc1C`
Output line: 3.7

Input line: Request the reported GI50 associated with `CCN(CCN1CCOCC1)c1nc(N2CCOCC2)nc(-n2cnc3ccccc32)n1`
Output line: 5

I. OCCN(CCO)c1nc(N2CCOCC2)nc(-n2cnc3ccccc32)n1
II. C[C@@H]1OCCN(c2cc(N3CCOCC3)nc(-n3cnc4ccccc43)n2)[C@@H]1C (relative stereo)
Input line: Response body: label of entry with the larger GI50; valid values I , II . Returns: label corresponding to the selected item.
Output line: I
(I: 4.6 µM, II: 1.1 µM)
